Tested on: RXRa homodimer (NR concentration 180 nM)
Protocol description: PBM binding z-score (relative to random genomic background probes); higher = stronger binding; sequences stand for … in GC…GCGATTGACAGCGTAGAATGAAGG
Provide the recorded PBM binding z-score for the entries that follow.
Answers are plain numbers.

A selection of reference data follows.
1) TGAATGATGTTAAAGATCAGGGAACGTGGCGTCG :: 0.495
2) TAACCTAGGTCATTGGGCCAGTATAGTACGCATC :: 3.95

Below are 6 sequences. Give each one its PBM binding z-score.
1. TCTAGTTGGTCACGGAGGTCGCACACGACGGGTA
2. GCTGCTAGGTCAACTGATGGTCAGGTAAAGCTCG
3. AGTCAAAGTTCAATAGGTAACGTAAGATTCAGCT
4. CCTTACGGGTCACGAGGCTATAGCACGACGAGCG
5. AGATGTAGGTTAAGGGTCATTCAGGTTGGTTCGC
6. CCGACTGGGGCAGAAAGGTTACCAGACCATCCGG

(A)
2.16
3
3.85
6.22
6.66
1.71
